Reported DC50 values are given for each entry in this list.
target: Nanoluciferase-BRD9 fusion protein (3×FLAG-NLuc-BRD9) in SYO-1 cells (Homo sapiens); construct: expressed in transfected cells; host or cells: SYO-1; test: SYO1 BRD9 NanoLuc degradation assay; type: cell-based; details: Table 6B; SYO-1 cells expressing 3×FLAG-NLuc-BRD9, 6 hours incubation, 1 μM top dose; read-out: SYO1 BRD9-NanoLuc degradation IC50

// solved cases for DC50 follow
# compound COc1cc(-c2cn(C)c(=O)c3cc(NC4CCN(C(=O)CCCCOc5ccc6c(c5)C(=O)N(C5CCC(=O)NC5=O)C6=O)CC4)sc23)cc(OC)c1CN(C)C (centres unmarked) ; its DC50 = > 10 nM

# compound COc1cc(-c2cn(C)c(=O)c3cc(C(=O)NC4CCN(CCCCCOc5cccc6c5C(=O)N(C5CCC(=O)NC5=O)C6=O)CC4F)sc23)cc(OC)c1CN(C)C (centres unmarked) ; its DC50 = < 10 nM

# compound COc1cc(-c2cn(C)c(=O)c3cc(C(=O)NCC4CC5CN(C(=O)CCN6CCN(c7ccc8c(c7)C(=O)N(C7CCC(=O)NC7=O)C8=O)CC6)CC5C4)sc23)cc(OC)c1CN(C)C (centres unmarked) ; its DC50 = > 100 nM

Next:
# compound COc1cc(-c2cn(C)c(=O)c3cc(C(=O)NC4CC5(CCN(CCN6CCN(c7ccc8c(c7)C(=O)N([C@H]7CCC(=O)NC7=O)C8=O)CC6)C5)C4)sc23)cc(OC)c1CN(C)C (some centres unmarked) ; its DC50 = < 10 nM

# compound COc1cc(-c2cn(C)c(=O)c3cc(C(=O)NCC4CC5(C4)CN(CCCN4CCN(c6ccc7c(c6)C(=O)N(C6CCC(=O)NC6=O)C7=O)CC4)C5)sc23)cc(OC)c1CN(C)C (centres unmarked) ; its DC50 = > 10 nM

====

Target: Nanoluciferase-BRD9 fusion protein (3×FLAG-NLuc-BRD9) in SYO-1 cells (Homo sapiens, UniProt Q9H8M2)
Construct: expressed in transfected cells; host or cells: SYO-1
Sequence (Q9H8M2 whole entry, the tested form may be a part): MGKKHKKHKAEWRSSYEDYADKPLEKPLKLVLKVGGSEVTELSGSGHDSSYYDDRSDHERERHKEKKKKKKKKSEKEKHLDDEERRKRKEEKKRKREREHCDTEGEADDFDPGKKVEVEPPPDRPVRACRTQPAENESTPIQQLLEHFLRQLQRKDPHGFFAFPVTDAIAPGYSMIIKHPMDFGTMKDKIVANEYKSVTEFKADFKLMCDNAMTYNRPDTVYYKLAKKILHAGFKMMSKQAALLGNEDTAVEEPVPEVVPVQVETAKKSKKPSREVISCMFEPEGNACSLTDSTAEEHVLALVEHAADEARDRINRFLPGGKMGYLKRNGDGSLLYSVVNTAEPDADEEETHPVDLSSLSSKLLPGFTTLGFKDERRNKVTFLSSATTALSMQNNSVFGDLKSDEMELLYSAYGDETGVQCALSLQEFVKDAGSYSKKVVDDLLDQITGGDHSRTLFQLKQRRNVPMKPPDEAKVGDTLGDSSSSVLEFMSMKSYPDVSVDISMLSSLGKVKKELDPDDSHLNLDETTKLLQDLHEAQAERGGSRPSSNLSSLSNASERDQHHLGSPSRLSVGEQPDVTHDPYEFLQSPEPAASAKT
Assay: SYO1 BRD9 NanoLuc degradation assay
Type: cell-based
Settings: Table 6C; SYO-1 cells expressing 3×FLAG-NLuc-BRD9, 6 hours incubation, 1 μM top dose; read-out: SYO1 BRD9-NanoLuc degradation IC50
Method: Procedure: A stable SYO-1 cell line expressing 3×FLAG-NLuc-BRD9 was generated. On day 0 cells were seeded in 30 μL media into each well of 384-well cell culture plates. The seeding density was 8000 cells/well. On day 1, cells were treated with 30 nL DMSO or 30 nL of 3-fold serially DMSO-diluted compounds (10 points in duplicates with 1 μM as final top dose). Subsequently plates were incubated for 6 hours in a standard tissue culture incubator and equilibrated at room temperature for 15 minutes. […]
Reported DC50 values are given for each entry in this list.

# compound COc1cc(-c2cn(C)c(=O)c3cc(C(=O)NC4CN(c5ccc6c(c5)C(=O)N(C5CCC(=O)NC5=O)C6=O)CC4(F)F)sc23)cc(OC)c1CN(C)C (stereo not drawn) ; its DC50 = < 10 nM

# compound COc1cc(-c2cn(C)c(=O)c3sccc23)cc(OC)c1CN1CCC(CN2CCC3(CC2)CC(Oc2ccc4c(c2)CN(C2CCC(=O)NC2=O)C4=O)C3)CC1 (stereo not drawn) [Compound D199] ; its DC50 = < 10 nM

# compound COc1cc(-c2cn(C)c(=O)c3cc(C(=O)NC4CCN(C5CCN(c6ccc7c(c6)CN(C6CCC(=O)NC6=O)C7=O)CC5(F)F)CC4)sc23)cc(OC)c1CN(C)C (stereo not drawn) ; its DC50 = < 10 nM

# compound Cn1cc(-c2cccc(C(F)(F)F)c2)c2oc(C(=O)NC3CCN(c4ccc5c(c4)C(=O)N(C4CCC(=O)NC4=O)C5)CC3)cc2c1=O (stereo not drawn) ; its DC50 = > 10 nM

# compound COc1cc(-c2cn(C)c(=O)c3ccsc23)cc(OC)c1CN1CCC2(CC1)CN(c1ccc3c(c1)C(=O)N(C1CCC(=O)NC1=O)C3)C2 (stereo not drawn) ; its DC50 = < 10 nM

Switching to the query record.
# compound COc1cc(-c2cn(C)c(=O)c3cc(C(=O)NC4CCN(C5CC6(C5)CN(c5ccc7c(c5)CN(C5CCC(=O)NC5=O)C7=O)C6)CC4(F)F)sc23)cc(OC)c1CN(C)C (stereo not drawn) ; its DC50 = > 100 nM

Origin of values: patent US12686687B2
